Measured IC50, listed per entry.
- target.under.test: Syk (Homo sapiens, UniProt P43405)
- Construct: purchased Carna Biosciences
- run.description: Syk HTRF assay
- Format: biochemical
- test.conditions: activity levels A-D, read-out: Activity Level (IC50 in the Syk HTRF assay)

Consider the following illustrative entries.
compound="CNC(=O)CNCc1cccc2nc(Nc3ccc(C(F)(F)F)cc3)nn12 [Example 213]" result_value="1000 to 10000 nM"
compound="O[C@H]1CC[C@@H](CNc2cccc3nc(Nc4ccc(C(F)(F)F)cc4)nn23)CC1 [Example 382]" result_value="1000 to 10000 nM"
compound="O[C@H]1CC[C@@H](Nc2cccc3nc(Nc4cnc5[nH]ccc5c4)nn23)CC1 [Example 297]" result_value="0.005 to 250 nM"
compound="Cc1cc(Nc2nc3cccc(Cc4ccnc(O)c4)n3n2)ccc1F [Example 219]" result_value="0.005 to 250 nM"
compound="O[C@H]1CC[C@@H](Nc2cccc3nc(Nc4ccc5[nH]nnc5c4)nn23)CC1 [Example 237]" result_value="0.005 to 250 nM"
compound="Cc1n[nH]c2cc(Nc3nc4cccc(N5CC(O)C5)n4n3)ccc12 [Example 215]" result_value="0.005 to 250 nM"
compound="O[C@H]1CC[C@@H](Nc2cccc3nc(Nc4ccc5cn[nH]c5c4)nn23)CC1 [Example 365]" result_value="0.005 to 250 nM"

Now for the compound whose IC50 we want.
Q: # query: IC50 of entry OCC1CCN(Cc2cccc3nc(Nc4ccc(C(F)(F)F)cc4)nn23)CC1 [Example 274]
Ans: 1000 to 10000 nM

====

- target.under.test: Syk (Homo sapiens)
- Construct: purchased Carna Biosciences
- run.description: Syk HTRF assay
- Format: biochemical
- test.conditions: read-out: Activity Level (Syk HTRF assay IC50)
pIC50: −log10 of the molar value.
reported.property: pIC50

Consider the following illustrative entries.
compound=CC1(C)C(=O)Nc2cc(Nc3nc4cccc(C[C@H]5CC[C@](C)(O)CC5)n4n3)ccc21 result_value="6.60 to 11.30"
compound=Cc1n[nH]c2cc(Nc3nc4cccc(N[C@H]5CC[C@@H](O)CC5)n4n3)cc(F)c12 result_value="6.60 to 11.30"
compound=O=C(NC1CCNCC1)c1ccc(Nc2nc3cccc(-c4ccccc4)n3n2)cc1 result_value="6.60 to 11.30"
compound=CN1C(=O)C(C)(C)c2ccc(Nc3nc4cccc(CC5CCOCC5)n4n3)cc21 result_value="6.60 to 11.30"
compound=CN(C)Cc1nc2ccc(Nc3nc4cccc(-c5ccccc5)n4n3)cc2[nH]1 result_value="6.60 to 11.30"
compound=c1ccc(-c2cccc3nc(Nc4ccc5ncccc5c4)nn23)cc1 result_value="6.60 to 11.30"

Q: Hi! What's the reported pIC50 for CC1(C)NC(=O)c2cc(Nc3nc4cccc(N[C@H]5CC[C@H](O)CC5)n4n3)ccc21 (stereo in doubt) on Syk (Homo sapiens)?
Ans: 6.00 to 6.30

Q: Do the same for OCc1nc2ccc(Nc3nc4cccc(-c5cccc(F)c5)n4n3)cc2[nH]1 please
Ans: 6.60 to 11.30

Q: Do the same for Cc1n[nH]c2cc(Nc3nc4cccc(NC[C@H]5CCC(O)C5)n4n3)ccc12 (stereo in doubt) please
Ans: 6.60 to 11.30

Q: Do the same for CNC(=O)c1ccc(Nc2nc3cccc(-c4cccc(O)c4)n3n2)c(OC)c1 please
Ans: 6.00 to 6.30

Q: Do the same for Nc1ccc(-c2cccc3nc(Nc4ccccc4)nn23)cc1 please
Ans: 6.30 to 6.60

Q: Do the same for Cc1n[nH]c2ccc(Nc3nc4cccc(NC5CCOCC5)n4n3)cc12 please
Ans: 6.00 to 6.30

Q: Do the same for COc1ccc(Nc2nc3cccc(-c4ccccc4)n3n2)cn1 please
Ans: 5.00 to 6.00

Q: Do the same for Cc1cc(Nc2nc3cccc(NC4CCOCC4)n3n2)cc2c1C(C)(C)C(=O)N2 please
Ans: 6.60 to 11.30

Q: Do the same for c1ccc(-c2cccc3nc(Nc4ccc5nn[nH]c5c4)nn23)cc1 please
Ans: 6.60 to 11.30

Q: Do the same for CNC(=O)c1ccc(Nc2nc3cccc(-c4ccc(C(=O)O)cc4)n3n2)cc1 please
Ans: 5.00 to 6.00

Q: Do the same for CNC(=O)c1ccc(Nc2nc3cccc(-c4cccc(C(=O)O)c4)n3n2)cc1 please
Ans: 5.00 to 6.00

Q: Do the same for O=S1(=O)NCc2ccc(Nc3nc4cccc(-c5ccccc5)n4n3)cc21 please
Ans: 6.60 to 11.30
